The values you see were collected from patent US20260356856A1.

subject-of-test: KRas WT (Homo sapiens, UniProt P01116)
Construct: Biotinylated KRas (corresponding to amino acids 1-169, produced at Accelegan Inc.); biotin (biotinylated); purchased Accelegan Inc
Sequence (P01116 1-169 isoform P01116-2): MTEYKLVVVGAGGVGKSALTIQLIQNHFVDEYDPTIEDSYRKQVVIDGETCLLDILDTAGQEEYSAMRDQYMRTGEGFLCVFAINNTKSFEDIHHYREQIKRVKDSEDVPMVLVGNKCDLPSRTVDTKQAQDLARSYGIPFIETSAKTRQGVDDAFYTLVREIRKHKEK
run-description: KRas binding assay, TR-FRET displacement of Cy5 labelled tracer
study-conditions: 60-minute incubation at room temperature, 1% DMSO, pH 7.5
reported-metric: IC50 (nM)

# molecule, endpoint-result
rows = [
    ("CCc1c(F)ccc2cc(O)cc(-c3ncc4c(N5CCC(C(=O)n6cccn6)CC5)nc(OC[C@@]56CCCN5C[C@H](F)C6)nc4c3F)c12 [Example 4]", 51),
]

(1) CC(=O)N(C)C(=O)C(C)CCN(C)c1nc(OC[C@@]23CCCN2C[C@H](F)C3)nc2c(F)c(-c3ccc(F)c4sc(N)c(C#N)c34)c(Cl)cc12 (stereo partly drawn) [Example 304]
(2) Cc1ccn(C(=O)C2C[C@@H]3CN(c4nc(OC[C@@]56CCCN5C[C@H](F)C6)nc5c(F)c(-c6ccc(F)c7sc(N)c(C#N)c67)c(Cl)cc45)C[C@@H]3C2)n1 (stereo partly drawn) [Example 180]
Kindly compare 1 with 2 and tell me which has the lower IC50 figure. Indicate which entry you chose by stating its label.
1
(1: 12 nM, 2: 67 nM)
